// data source = patent US20120178682A1

Give measured Kd for each item. Keep answers brief.
system_name: D-VEGF
assay_text: SPR affinity measurements of GB1 peptidic compounds on immobilized D-VEGF
Assay type: binding
settings: Table 2; GB1-E01 double mutants; target D-VEGF
Give bare numbers, in nM.

Some solved entries appear below for comparison.
molecule	quantity_kind	endpoint_value
E01-D39F/S35G: E01 double mutant D39F/S35G (protein) MKIEEHHHHHHHHHHGGSTYKLILNGKTLKGETTTEAVDVYDAFDVFFVYAAGNFSFFDDWTYDDATKTFTVTEGGSDK	Kd	5.4
E01-D39F/V22L: E01 double mutant D39F/V22L (protein) MKIEEHHHHHHHHHHGGSTYKLILNGKTLKGETTTEAVDLYDAFDVFFVYAASNFSFFDDWTYDDATKTFTVTEGGSDK	Kd	1.14
E01-D39F/S35E: E01 double mutant D39F/S35E (protein) MKIEEHHHHHHHHHHGGSTYKLILNGKTLKGETTTEAVDVYDAFDVFFVYAAENFSFFDDWTYDDATKTFTVTEGGSDK	Kd	4.52

Shift focus to the following entry.
Data request: // Kd lookup, key: E01-D39F/S35R: E01 double mutant D39F/S35R (protein) MKIEEHHHHHHHHHHGGSTYKLILNGKTLKGETTTEAVDVYDAFDVFFVYAARNFSFFDDWTYDDATKTFTVTEGGSDK
Data returned: 5.35
